B1: PLD5 (parent)
chain: WIVDKQHVYIGSAGLDWQSLGQMK

# Variants of: B1
# ASSAY SUMMARY: protein stability index of a GFP-peptide fusion (GPS, HEK-293T) (PSI 1-6); higher = more stable;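 note: lentivirally expressed fusions sorted by FACS into six bins by GFP to DsRed ratio, PSI derived from sequencing read proportions per bin multiplied by bin number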
# ASSAY SETUP: c terminus: a fixed tail appended
Each entry below carries its recorded protein stability index.
# output: bare number, no unit

Solved entries (count: 3):
[[record]]
mutations = "D4H"
value_observed = 2.37

[[record]]
mutations = "I10R"
value_observed = 1.65

[[record]]
mutations = "S19M"
value_observed = 1.7


Entry V3T — recorded protein stability index = 1.59

Entry under test: Q22F . Its protein stability index was 2.59

The value of protein stability index measured for the variant D4M turned out to be 2.12

Notebook: K24I , protein stability index read as 1.79

Lab book: protein stability index of S12R noted as 1.6

Value of protein stability index reported for the variant V8F is 1.92

Briefly, protein stability index measured for I10W : 1.96

Documented protein stability index of M23R : 1.97

The variant G14T showed protein stability index equal to 1.25

What the record says about V3I : protein stability index is 2.64
